Every entry's value here was drawn from ChEMBL document CHEMBL5058577.

Test system: HEK-293T
Experiment: Multiplex assay against HEK293T
Type: toxicity, cell-based
Conditions: human, 24 h, 10 µM, compound concentration 10 uM, replicate 1
Classification scheme (Population Tubulin-Different-Phenotype (%)): Low (below 30%), Mid (30% to below 50%), High (50% or more)

Recorded results for 8 compounds are shown here.
1. CSCC[C@H](NC=O)C(=O)N[C@@H](CC(C)C)C(=O)N[C@@H](Cc1ccccc1)C(=O)O = Low
2. Cc1ccccc1C(=O)Nc1ccc(C(=O)N2CCCC(N(C)C)c3ccccc32)cc1.Cl (centres undefined) = Mid
3. O=S(=O)(c1ccccc1)c1cnc2c(N3CCNCC3)cccc2c1 [INTEPIRDINE] = Mid
4. CCCN1CCC[C@@H]2Cc3n[nH]cc3C[C@H]21.Cl [QUINPIROLE HYDROCHLORIDE] = Low
5. Cc1ccc(-c2ccc(F)cc2COc2ccc(CCC(=O)O)cc2)cc1 = Low
6. CCNC1(C(N)=O)CCN(c2ncnc3c2nc(-c2ccccc2Cl)n3-c2ccc(Cl)cc2)CC1 = High
7. COc1cc(NC(=O)CCN2CCC(OC(=O)Nc3ccccc3-c3ccccc3)CC2)c(Cl)cc1CNC[C@H](O)c1ccc(O)c2[nH]c(=O)ccc12 = High
8. Cc1ccc(C(C)(O)c2nc3ccccc3s2)c(C)c1 (centres undefined) = Mid

Enquiry: Please let me know in which category the item "c1cc(OCCCN2CCCCC2)ccc1CN1CCCCC1" belongs.
Return: Mid

====

Each item that follows carries a reported Population Hoechst High Intensity Objects (%).
Test system: HEK-293T
Assay: Multiplex assay against HEK293T
Assay type: toxicity, cell-based
Conditions: human, 48 h, 10 µM, compound concentration 10 uM, replicate 2
// units = %; emit number, no label

Completed entries (count: 10):
1) CC(=O)NCCc1c(Cc2ccccc2)[nH]c2ccccc12 [LUZINDOLE] = 6
2) CC(C)(C)c1ccc(S(=O)(=O)Nc2ccc(Cl)cc2C(=O)c2cc[n+]([O-])cc2)cc1 [VERCIRNON] = 2
3) CN(C)c1ccnc2sc3c(=O)n(N4CCCCCC4)cnc3c12 = 6
4) C[C@@H]1C[C@H]2[C@@H]3CCC4=CC(=O)C=C[C@]4(C)[C@@]3(F)[C@@H](O)C[C@]2(C)[C@@]1(O)C(=O)CO [DEXAMETHASONE] = 6
5) CCCC(CCC)C(=O)O [VALPROIC ACID] = 1
6) CNC[C@H](O)c1ccc(O)c(O)c1 [EPINEPHRINE] = 21
7) O=C(NCCO)c1cccc(-c2cc(Nc3ccc(OC(F)(F)F)cc3)ncn2)c1 = 17
8) CCCN1CCC[C@@H]2Cc3n[nH]cc3C[C@H]21.Cl [QUINPIROLE HYDROCHLORIDE] = 1
9) CCOc1c2c(c(OCC)c3ncccc13)CN(c1ccc(CS(=O)(=O)NC(=O)Cc3ccccc3OC)cc1C)C2=O = 3
10) C[C@H](NC(=O)c1c(C(F)F)nn(C)c1Oc1cccc(C(F)(F)F)c1)c1ccc(C(=O)O)cc1 [PALUPIPRANT] = 3

Enquiry: Consider the compound "Cc1nc2ccc(Oc3ccc(F)cc3)cc2c(=O)n1C[C@H]1CCCN(C(C)C)C1.Cl" and give its measured Population Hoechst High Intensity Objects (%).
Return: 22

Enquiry: Population Hoechst High Intensity Objects (%) for Cc1ccc(C(C)(O)c2nc3ccccc3s2)c(C)c1 (configuration not stated) ?
Return: 3

Enquiry: What Population Hoechst High Intensity Objects (%) value was documented for this compound, "CN1CCN(c2nc3cc(C(F)(F)F)ccc3n3cccc23)CC1.O=C(O)/C=C\C(=O)O.O=C(O)/C=C\C(=O)O" ?
Return: 12

Enquiry: What does the record list as Population Hoechst High Intensity Objects (%) for "CCCn1c(=O)c2[nH]c(C3CCCC3)nc2n(CCC)c1=O" ?
Return: 7

Enquiry: Population Hoechst High Intensity Objects (%) for "Cc1ccc(-c2ccc(F)cc2COc2ccc(CCC(=O)O)cc2)cc1" ?
Return: 4

Enquiry: Given the compound "COc1cc(C(=O)N(CCCc2ccccc2)Cc2ccc(CC(=O)O)cc2)cc(OC)c1C" , what is its reported Population Hoechst High Intensity Objects (%)?
Return: 8

Enquiry: Endpoint output: Population Hoechst High Intensity Objects (%) of "CC[C@H]1OC(=O)[C@H](C)[C@@H](O[C@H]2C[C@@](C)(OC)[C@@H](O)[C@H](C)O2)[C@H](C)[C@@H](O[C@@H]2O[C@H](C)C[C@H](N(C)C)[C@H]2O)[C@@]2(C)CC(C)=C(O2)[C@H](C)[C@@H](O)[C@]1(C)O" . Value?
Return: 12

====

Test system: U2OS
Assay: Multiplex assay against U2OS
Type: toxicity, cell-based
Settings: human, 12 h, 1 µM, compound concentration 1 uM, replicate 1
Endpoint: Population Hoechst High Intensity Objects (%)
// units = %; emit number, no label

Worked set:
1) CCOc1c2c(c(OCC)c3ncccc13)CN(c1ccc(CS(=O)(=O)NC(=O)Cc3ccccc3OC)cc1C)C2=O = 2
2) O=C1COc2nccc(-c3ccccc3F)c2CN1Cc1cc(C(F)(F)F)cc(C(F)(F)F)c1 = 4
3) COc1c(C)cc(NC(=O)c2nn(Cc3ccc(F)cc3)c3c2CN(C(=O)c2ccc[nH]2)C[C@]3(C)C(N)=O)cc1C = 2
4) O=S(=O)(c1ccccc1)c1cnc2c(N3CCNCC3)cccc2c1 [INTEPIRDINE] = 1
5) Oc1c(CN2CCN(c3ccccn3)CC2)cc(Cl)c2cccnc12 = 1
6) O=C(NCCO)c1cccc(-c2cc(Nc3ccc(OC(F)(F)F)cc3)ncn2)c1 = 1

Enquiry: Fill blank: measured Population Hoechst High Intensity Objects (%) of the compound "CC[C@H]1OC(=O)[C@H](C)[C@@H](O[C@H]2C[C@@](C)(OC)[C@@H](O)[C@H](C)O2)[C@H](C)[C@@H](O[C@@H]2O[C@H](C)C[C@H](N(C)C)[C@H]2O)[C@@]2(C)CC(C)=C(O2)[C@H](C)[C@@H](O)[C@]1(C)O" is ____.
Return: 3

Enquiry: Fill in: Population Hoechst High Intensity Objects (%) of "CC(C)(C)c1ccc(S(=O)(=O)Nc2ccc(Cl)cc2C(=O)c2cc[n+]([O-])cc2)cc1" is ___
Return: 1

Enquiry: # get_value(readout='Population Hoechst High Intensity Objects (%)', item= "Cc1ccc(F)cc1C(=O)Nc1ccc(C(=O)N2Cc3cccn3Cc3ccccc32)c(Cl)c1" )
Return: 3

Enquiry: Would you kindly share the measured Population Hoechst High Intensity Objects (%) for "CC1(COc2ccc3c(c2)ncn3-c2ccc3cccc(N4CCC(N)CC4)c3n2)COC1" ?
Return: 9

Enquiry: What does the record list as Population Hoechst High Intensity Objects (%) for "C[C@@H]1C[C@H]2[C@@H]3CCC4=CC(=O)C=C[C@]4(C)[C@@]3(F)[C@@H](O)C[C@]2(C)[C@@]1(O)C(=O)CO" ?
Return: 2

====

System: HEK-293T
Assay: Multiplex assay against HEK293T
Type: toxicity, cell-based
Conditions: human, 24 h, 10 µM, compound concentration 10 uM, replicate 1
Some molecules, each annotated with its measured Population Fragmented Nuclei (%).
Provide the reading as a plain figure in %.

Would you please look over these solved cases?
1. C[C@H]1[C@H]2CC[C@H]3[C@@H]4CC=C5C[C@@H](N(C)C)CC[C@]5(C)[C@H]4CC[C@]23CN1C = 9
2. Cl.Clc1ccc2nsnc2c1NC1=NCCN1 [TIZANIDINE HYDROCHLORIDE] = 11
3. C[C@H](NC(=O)c1c(C(F)F)nn(C)c1Oc1cccc(C(F)(F)F)c1)c1ccc(C(=O)O)cc1 = 9

For the next question, use this molecule.
Enquiry: Recorded Population Fragmented Nuclei (%) for "CN(C)CCCc1cc(C(=O)Nc2ccc(-c3ccncc3)cc2)ccc1O.Cl.Cl" , please?
Return: 12

====

Here, each record is paired with measured Population Healthy Nuclei (%) data.
Tested on: U2OS
Assay: Multiplex assay against U2OS
Format: toxicity, cell-based
Conditions: human, 12 h, 10 µM, compound concentration 10 uM, replicate 1
Kindly provide the numeric value in % only, without the unit symbol.

Take a look at these entries with their results.
1) Cc1ccc(/C(=C\CN2CCCC2)c2ccccn2)cc1 = 64
2) CC[C@H]1OC(=O)[C@H](C)[C@@H](O[C@H]2C[C@@](C)(OC)[C@@H](O)[C@H](C)O2)[C@H](C)[C@@H](O[C@@H]2O[C@H](C)C[C@H](N(C)C)[C@H]2O)[C@@]2(C)CC(C)=C(O2)[C@H](C)[C@@H](O)[C@]1(C)O = 40
3) N[C@@]1(C(=O)O)CO[C@H]2[C@H](C(=O)O)[C@H]21 = 61

Enquiry: What value of Population Healthy Nuclei (%) has been recorded for this entry: "c1cc(OCCCN2CCCCC2)ccc1CN1CCCCC1"
Return: 57

Enquiry: What does the record list as Population Healthy Nuclei (%) for "CC1(COc2ccc3c(c2)ncn3-c2ccc3cccc(N4CCC(N)CC4)c3n2)COC1" ?
Return: 11

Enquiry: Population Healthy Nuclei (%) for "C[C@H](NC(=O)c1c(C(F)F)nn(C)c1Oc1cccc(C(F)(F)F)c1)c1ccc(C(=O)O)cc1" ?
Return: 62

Enquiry: Quick one: Population Healthy Nuclei (%) of "CCCn1c(=O)c2[nH]c(C3CCCC3)nc2n(CCC)c1=O" ?
Return: 60

Enquiry: Which Population Healthy Nuclei (%) value is on record for "CN(C)c1ccnc2sc3c(=O)n(N4CCCCCC4)cnc3c12" ?
Return: 56

Enquiry: Which Population Healthy Nuclei (%) value belongs to "O=C(NCC(=O)N1CC[C@H](N[C@H]2CC[C@@](O)(c3ccc(-c4ncccn4)cn3)CC2)C1)c1cccc(C(F)(F)F)c1" ?
Return: 62

Enquiry: May I ask what Population Healthy Nuclei (%) has been recorded for "O=C(NCCO)c1cccc(-c2cc(Nc3ccc(OC(F)(F)F)cc3)ncn2)c1" ?
Return: 66

Enquiry: Which Population Healthy Nuclei (%) reading was recorded for the compound "COc1c(C)cc(NC(=O)c2nn(Cc3ccc(F)cc3)c3c2CN(C(=O)c2ccc[nH]2)C[C@]3(C)C(N)=O)cc1C" ?
Return: 43

Enquiry: Item under review: "COc1cc(NC(=O)CCN2CCC(OC(=O)Nc3ccccc3-c3ccccc3)CC2)c(Cl)cc1CNC[C@H](O)c1ccc(O)c2[nH]c(=O)ccc12" . Reported Population Healthy Nuclei (%)?
Return: 44

Enquiry: GET /values?readout=Population Healthy Nuclei (%)&item= CNC[C@H](O)c1ccc(O)c(O)c1 [EPINEPHRINE]
Return: 45

Enquiry: // Population Healthy Nuclei (%) lookup, key: "O=C(O)c1cc2ccccc2c(Cc2c(O)c(C(=O)O)cc3ccccc23)c1O"
Return: 75
